System: HCT-15 colon
Assay: NCI-60 one-dose screen, 48 h (100 = growth as untreated, 0 = no growth, -100 = all killed)
Conditions: 10 µM unless noted
This is part of a sample that, as a whole, favours compounds with a hit. Of some 83,000 tested, about 20% had one in any assay.
Response field label: string, one of true (1) (growth strictly below 40%) or false (0).

• O=C1CC(c2nc3ccccc3[nH]2)CN1C1CCCCC1 (stereo unspecified) = false (0)
• CCOC(=O)c1c2ncccc2n2c(=O)n(-c3ccc(Cl)cc3)nnc12 = false (0)
• CS(CCCCN=C=S)=NC(=O)c1c(F)c(F)c(F)c(F)c1F (stereo unspecified) = true (1)
• CCOC(=O)C(CC)n1c(=O)c2cc(OC)c(OC)cc2c2cnc3[nH]ccc3c21 (stereo unspecified) = false (0)
• CCCCCC(=O)Oc1ccc(/C(=C(\C)c2ccccc2)c2ccc(OCCN(CC)CC)cc2)cc1 = true (1)
• COc1cc(OC)c(/C=C/S(=O)(=O)Cc2cnc(OC)c(N)c2)c(OC)c1 = true (1)
• CC/C=C\C[C@H](F)C/C=C1/C(=O)C=C[C@@H]1C/C=C\CCCC(=O)O = true (1)
• Nc1cc(O)cc2cccnc12 = false (0)

Would you kindly verify if growth of "CCN(C(=O)CN1CCN(c2cc3c(cc2F)c(=O)c(C(=O)O)cn3C2CC2)CC1)c1nc(-c2ccc(OC)cc2)cs1" is strictly less than 40%?
false (0)

Would you kindly verify if growth of "CCc1ccc(C(c2ccc(CC)cc2)C(Cl)(Cl)CCl)cc1" is strictly less than 40%?
false (0)

Would you kindly verify if growth of "O=c1[nH]c(-c2ccccn2)nc2sc3c(c12)CCCCC3" is strictly less than 40%?
true (1)

Would you kindly verify if growth of "Clc1cccc(Nc2nc(Nc3cnc4ccccc4c3)c3[nH]cnc3n2)c1" is strictly less than 40%?
false (0)

Would you kindly verify if growth of "CCOC(=O)CC(=O)c1c(C)cc(C)cc1C" is strictly less than 40%?
false (0)

Would you kindly verify if growth of "C/C(=C(/c1ccc(O)cc1)c1ccc(OCCN(C)C)cc1)c1ccccc1" is strictly less than 40%?
false (0)

Would you kindly verify if growth of "COc1ccc(/C=C2\CN(C(=O)CCN3CCC(=NO)CC3)C/C(=C\c3ccc(OC)cc3)C2=O)cc1" is strictly less than 40%?
true (1)
